Target: T1, extracellular domain of human BLyS protein (hBLyS-ECD), His-tagged, Ala134-Leu285 (human, UniProt Q9Y275 134-285)
T1 construct: Expressed in HEK293 cells and purified on a Ni column; also called immunogen
T1 sequence (Q9Y275 134-285): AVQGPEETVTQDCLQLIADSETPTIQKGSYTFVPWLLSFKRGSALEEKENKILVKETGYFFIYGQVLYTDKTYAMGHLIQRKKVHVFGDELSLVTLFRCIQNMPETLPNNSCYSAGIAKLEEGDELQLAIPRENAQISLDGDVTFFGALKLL
Experiment: SPR (Biacore), antibody captured by anti-human Fc, hBLyS-ECD as analyte
measure-name: koff (s⁻¹)
Give bare numbers, in s⁻¹.

Any idea what koff was measured for h8E7D9C7F5-1 (antibody, V domains shown, Humanized antibody; also called humanized BLyS antibody h8E7D9C7F5 variant 1 (VH.1 / Vk.1)) VH: EVQLVQSGAEVKKPGASVKVSCKASGYTFTSYGISWVRQAPGQGLEWMGEIYPRSGNTYYNEKFKGRVTMTTDTSTSTAYMELRSLRSDDTAVYYCARSGPITTLVATDYGMDYWGQGTTVTVSS VL: DIVMTQSPDSLAVSLGERATINCRASKSVSTSSYSYMHWYQQKPGQPPKLLIKFASNLESGVPDRFSGSGSGTDFTLTISSLQAEDVAVYYCQHSREFPYTFGGGTKVEIK ?
0.000942
